Tested on: NCI/ADR-RES ovarian
test name: NCI-60 one-dose screen, 48 h (100 = growth as untreated, 0 = no growth, -100 = all killed)
applied conditions: 10 µM unless noted
Description: Growth inhibition of the NCI/ADR-RES human […] tumor cell line is measured as a screen for anti-cancer activity. Cells are grown in 96 well plates and exposed to the test compound for 48 hours. Compounds are tested at a single concentration, which is 10^-5 M for most compounds. The reported endpoint is percent growth (GI% or GIPRCNT), where numbers from 0 - 100% represent growth inhibition, and numbers from -100% - 0 represent cell death. For example, a value of 40 represents 60% growth inhibition. […]
About 83,000 compounds went through this panel and 20% of them were active in at least one assay; those are over-represented in the sample as a whole.
measured endpoint: growth (%)
Could you give me the number in %? Just the number is fine.

Worked examples follow.
molecule	endpoint unit	growth
COC(=O)N[C@H]1CCc2cc(OC)c(OC)c(OC)c2-c2ccc(SC)c(=O)cc21	%	-22
CC(=O)Nc1ccc(C(=O)Nc2cc(-c3ccccc3)ccc2N)cc1	%	42.9
Cc1cn(-c2cc(C(=O)Nc3cccc(C#Cc4cccc5[nH]nc(N)c45)c3)cc(C(F)(F)F)c2)cn1	%	98.6

// lookup growth for Cc1cc2nc(-c3ccccc3)c(-c3ccccc3)nc2cc1C 93.1

Also CCOC(=O)c1cnc2c(cnn2CC)c1NN=C(C)C , if possible. 83.3

Also CC1(C)NCCC[C@]2(C)[C@H]3CC=C4[C@@H]5C[C@@](C)(CO)CC[C@]5(C)CC[C@@]4(C)[C@]3(C)CC[C@@H]12 , if possible. 74.2

Also O=C1Nc2ccccc2/C1=N/c1nc(-c2ccc(Cl)cc2)cs1 , if possible. 88.9

Also COc1cccc(CCC(=O)c2cc3c(N)c(C(=O)Nc4ccccc4)sc3nc2C)c1 , if possible. 12.2

Also COc1ccc2c(c1)OC13Oc4cc(OC)ccc4C=C1CCCC3=C2 , if possible. 21.6

Also c1ccc(C2CC(c3cccc(Nc4ccncc4)c3)=NN2c2ccccc2)cc1 (centres undefined) , if possible. 74.2

Also COc1ccc(-c2nc3sccn3c2/C=C/C(=O)c2cc(OC)c(OC)c(OC)c2)cc1 , if possible. 47.5

Also FCc1nc2nc(Cl)c(Cl)nc2[nH]1 , if possible. 107

Also CCCC1C(C(=O)OCC)=C(N)Oc2cc(O)ccc21 (centres undefined) , if possible. 94.3

Also CC(O)/C=C/C=C/C(O)CC/C=C/C(=O)NCC(C)(C)O (centres undefined) , if possible. 109

Also CC(C)(O)C1CCCN1C(=O)c1ccccc1I (centres undefined) , if possible. 87.8

Also CN1CCN(CC#CCNC(=O)[C@]23CCC(C)(C)C[C@H]2C2=CC[C@@H]4[C@@]5(C)Cc6c([nH]c7ccccc67)C(C)(C)[C@@H]5CC[C@@]4(C)[C@]2(C)CC3)CC1 , if possible. 76.9

Also COc1cc(/C=C/C(=O)c2c(C)oc3nc[nH]c(=O)c23)ccc1O , if possible. 101

Also Cc1cc(NC(=O)c2cnc(N3CCN(CCOCCOCCOCCOCCC(=O)N[C@H](C(=O)N4C[C@H](O)C[C@H]4C(=O)N[C@@H](C)c4ccc(-c5scnc5C)cc4)C(C)(C)C)CC3)cn2)c2ncccc2c1 , if possible. 90.5

Also CCCCCCNC(=O)Oc1ccc(/C(=C(/CC)Cc2ccccc2)c2ccc(OCCN(CC)CC)cc2)cc1 , if possible. 70.6

----------
System: HT29 colon
test name: NCI-60 one-dose screen, 48 h
applied conditions: 10 µM unless noted
Compounds without any hit were thinned out: in the full panel of roughly 83,000, 20% have a hit. Active and inactive are the calls of the source. Rule for the calls: active = growth percent below 10; inactive = the rest.
Could you please pick one outcome from this set? true (1) for active, false (0) for inactive

compound	category
Fc1ccc(C2CC(c3cccc(Nc4ccncc4)c3)=NN2c2ccccc2)cc1 (centres undefined)	true (1)

Given COc1ccc(C(=O)c2cc3c(N)c(C(=O)Nc4cccc(Cl)c4C)sc3nc2C)cc1 , state the outcome it received in this test. true (1)

Also CCC1(CC)NC(=O)c2c(c3ccc(Cl)c(Cl)c3n2C)C1C#N (centres undefined) , if possible. false (0)

Also O=S(=O)(c1ccc(N/N=C\c2ccccc2)cc1)c1ccc(N/N=C/c2ccccc2)cc1 , if possible. false (0)

Also COc1ccc(-c2nc(N/N=C/c3ccco3)nc(N3CCOCC3)c2C#N)cc1 , if possible. false (0)

Also CN1CCN(c2cnc(C(=O)Nc3cc(F)cc4cccnc34)cn2)CC1 , if possible. false (0)

Also COc1ccc(C(=O)c2cc3c(N)c(C(=O)Nc4cccc5ccccc45)sc3nc2C)cc1 , if possible. true (1)

Also C=C(C)[C@@H]1CC[C@]2(CO)CC[C@]3(C)[C@H](CC[C@@H]4[C@@]5(C)CCCNC(C)(C)[C@@H]5CC[C@]43C)[C@@H]12 , if possible. true (1)

Also NC(=S)N/N=C(/c1ccccc1)c1ccccc1N , if possible. false (0)

----------
Test system: HT29 colon
test name: NCI-60 one-dose screen, 48 h
applied conditions: 10 µM unless noted
Compounds without any hit were thinned out: in the full panel of roughly 83,000, 20% have a hit. The source made the active and inactive calls. Rule for the calls: active = growth percent below 10; inactive = the rest.
Could you please pick one outcome from this set? active, inactive

molecule	category
CSc1nc(O)c(-c2ccccc2)c(=O)[nH]1	inactive

Given Clc1cc(Cl)cc(N2N=C(c3cccc(Nc4ccncc4)c3)CC2c2ccccc2)c1 (stereo not drawn) , state the outcome it received in this test. active

Also C=C(C)[C@@H]1CC[C@]2(C(=O)NCCCN(CCC#N)CCC#N)CC[C@]3(C)[C@H](CC[C@@H]4[C@@]5(C)CCC(=O)C(C)(C)[C@@H]5CC[C@]43C)[C@@H]12 , if possible. inactive

Also CC(=O)[C@@H]1CC[C@]2(C(=O)n3ccnc3)CC[C@]3(C)[C@H](CC[C@@H]4[C@@]5(C)Cc6c([nH]c7ccccc67)C(C)(C)[C@@H]5CC[C@]43C)[C@@H]12 , if possible. inactive

----------
Test system: NCI-H226 lung
test name: NCI-60 one-dose screen, 48 h (100 = growth as untreated, 0 = no growth, -100 = all killed)
applied conditions: 10 µM unless noted
This is part of a sample that, as a whole, favours compounds with a hit. Of some 83,000 tested, about 20% had one in any assay.
# strict inequality: growth < 90% yields label 1, everything else yields label 0

See these solved cases before continuing.
compound	category
Cc1c2c(cc[n+]1Cc1ccccc1)c1ccc(OCc3ccccc3)cc1n2Cc1ccccc1	label 1
CN1CCN(c2ccc(NC3=C(Cl)C(=O)c4ncccc4C3=O)cc2C#N)CC1	label 0
c1ccc(N2N=C(c3cccc(Nc4ccncc4)c3)CC2c2ccc3c(c2)OCO3)cc1 (stereo not given)	label 1
COc1cc2ncnc(Nc3ccc(C(=O)/C=C/c4ccc(C(F)(F)F)cc4F)cc3)c2cc1OC	label 0
COc1cc(COC(=O)CCCCC[P+](c2ccccc2)(c2ccccc2)c2ccccc2)c(OC)c2c1OCO2	label 1

Input O=C(Nc1nc(-c2ccc(Br)cc2)cs1)c1cc(-c2ccc(Br)cc2)nc2ccc(Cl)cc12 ; condition: growth strictly below 90%. Does it hold? label 1

Also COc1ccc(-c2nc(SC(C)C)nc(NNC(N)=O)c2C#N)cc1 , if possible. label 0

Also [O-][n+]1ccccc1CCN(O)CCc1cccc[n+]1[O-] , if possible. label 1

----------
Test system: OVCAR-3 ovarian
test name: NCI-60 one-dose screen, 48 h (100 = growth as untreated, 0 = no growth, -100 = all killed)
applied conditions: 10 µM unless noted
The panel holds about 83,000 compounds, 20% with a hit somewhere; the sample as a whole holds those more often. Calls of active or inactive are those of the source. Rule for the calls: active = growth percent below 10; inactive = the rest.
measured endpoint: growth

Worked examples follow.
molecule	endpoint result
CC(=O)N1N=C(c2cccc(Nc3ccncc3)c2)CC1c1ccc2c(c1)OCO2 (stereo not given)	96% (inactive)
Brc1ccc(C2CC(c3cccc(Nc4ccncc4)c3)=NN2c2ccccc2)cc1 (stereo not given)	80% (inactive)
COc1cc(/C=N/NC(=O)c2ccccc2Nc2cccc(C(F)(F)F)c2)ccc1O	80.6% (inactive)
Cc1c(C(=O)NO)sc2ncnc(Nc3ccc(NC(=S)Nc4ccccc4)cc3)c12	111% (inactive)

Attention now turns to another entry.
// lookup growth for Cn1c(=O)c2[nH]c(CCCc3nc4c([nH]3)c(=O)n(C)c(=O)n4C)nc2n(C)c1=O 128% (inactive)

----------
Test system: SK-MEL-2 melanoma
test name: NCI-60 one-dose screen, 48 h (100 = growth as untreated, 0 = no growth, -100 = all killed)
applied conditions: 10 µM unless noted
The panel holds about 83,000 compounds, 20% with a hit somewhere; the sample as a whole holds those more often.
Decide by growth: equal to or exceeding 90% means true (1), less means false (0).

See these solved cases before continuing.
compound	category
Cn1ncc2c(Nc3ccccc3Cl)nc(Cl)nc21	true (1)
c1ccc(Cn2nc3c(c2-c2ccccc2)-c2oncc2CC3)cc1	true (1)
Clc1ccc(C2CC(c3cccc(Nc4ccncc4)c3)=NN2c2ccc(Cl)cc2)cc1 (stereo not given)	false (0)
O=C1c2ccccc2-c2c1c1c(NCCCO)nc3ccccc3c1n2Cc1ccccc1	false (0)
Cn1c(COC(=O)NCCN2CCOCC2)nc2c(N3CCOCC3)nc(-c3ccccc3)nc21	false (0)

Read the next record carefully.
API: above_or_equal(metric=growth, cutoff=90%) for item COc1ccc(/C=N/NC(=O)c2cccc3cc[nH]c23)cc1O false (0)

Source listed as PubChem BioAssay (NCI).
